biological target: T1, human CD40 expressed on cells (human, UniProt P25942 21-277); assay: flow cytometry, Raji cells;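 further: cell binding of antibodies to Raji cells detected by flow cytometry using an Alexa488-labelled anti-human IgG secondary antibody, primary incubation 1 h at 4 °C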
T1 construct: also called huCD40; Raji cells
// reported EC50 for each item listed
Just the number please, in µg/mL, no unit attached.

Known results for binders:
BINDER	EC50 [µg/mL]
P1AE0817, humanized anti-CD40 antibody VH1a/VL1a, huIgG1_LALA_PG (antibody, V domains shown) VH: QVQLVQSGAEVKKPGASVKVSCKASGYSFTGYYIHWVRQAPGQSLEWMGRVIPNAGGTSYNQKFKGRVTLTVDKSISTAYMELSRLRSDDTAVYYCAREGIYWWGQGTTVTVSS VL: DIVMTQTPLSLSVTPGQPASISCRSSQSLVHSNGNTFLHWYLQKPGQSPQLLIYTVSNRFSGVPDRFSGSGSGTDFTLKISRVEAEDVGVYFCSQTTHVPWTFGGGTKVEIKR	0.09
P1AE0998, humanized anti-CD40 antibody VH1c/VL1d, huIgG1_LALA_PG (antibody, V domains shown, huIgG1 with effector silent Fc (P329G, L234A, L235A)) VH: QVQLVQSGAEVKKPGASVKVSCKASGYSFTGYYIHWVRQAPGQSLEWMGRVIPNAGGTSYNQKFKGRVTLTVDKSISTAYMELSRLRSDDTAVYYCAREGIYWWGHGTTVTVSS VL: DVVVTQTPLSLSVTPGQPASISCRSSQSLVHSNGNTFLHWYLQKPGQSPQLLIYTVSNRFSGVPDRFSGSGSGTDFTLKISRVEAEDVGVYFCSQTTHVPWTFGGGTKLEIK	0.12

Next item in the queue.
What does the record list as EC50 for P1AE0996, humanized anti-CD40 antibody VH1a/VL1d, huIgG1_LALA_PG (antibody, V domains shown, huIgG1 with effector silent Fc (P329G, L234A, L235A)) VH: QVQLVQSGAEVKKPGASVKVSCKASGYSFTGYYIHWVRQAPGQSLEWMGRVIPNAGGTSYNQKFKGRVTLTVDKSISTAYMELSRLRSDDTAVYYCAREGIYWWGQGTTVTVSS VL: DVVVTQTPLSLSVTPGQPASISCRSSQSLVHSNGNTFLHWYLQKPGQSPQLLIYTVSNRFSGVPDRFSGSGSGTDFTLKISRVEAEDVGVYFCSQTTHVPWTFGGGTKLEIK ? 0.12
